Assay: In vivo pharmacokinetics in rats
Details: plasma, iv; Wistar Rat, I.V. 1mg/kg; read-out: Cmax/C0
value_type: Cmax (ng/mL)
Your answer is read as ng/mL, so omit the unit and give the number.

-- ask # query: Cmax of entry Nc1nnc(-c2ccccc2O)cc1-c1ccc(N2CCC(N3CCC(c4ccc(OC5CCC(=O)NC5=O)cc4)CC3)CC2)cc1 (stereo not shown) [AU-24118]
-- reply 96.2

----------
Assay: In vivo pharmacokinetics in mice
Details: mouse, plasma, iv; CD1 Mice, I.V. 1mg/kg; read-out: CI (Clearance)
Experimental: All experimental procedures relating to animal care, handling, and treatment were approved by the Institutional Animal Ethics Committee of Aurigene Oncology Ltd. based on the Committee for Control and Supervision of Experiments on Animals guidelines. […] Concentrations of AU-24118 were determined in plasma samples using a nonvalidated (fit for purpose) LC–MS/MS method in positive Multiple Reaction Monitoring mode with transition pair of m/z: 633.11→344.00. […]
value_type: clearance
// unit must come after the numeric part

-- ask # query: clearance of entry Nc1nnc(-c2ccccc2O)cc1-c1ccc(N2CCC(N3CCC(c4ccc(OC5CCC(=O)NC5=O)cc4)CC3)CC2)cc1 (stereo not shown) [AU-24118]
-- reply 10 mL/min/kg
